Observed GI50 values for UACC-257 are listed in what follows.
Field format: number, assumed µM, no unit text.

| Smiles Data | Unit Text | GI50 |
| --- | --- | --- |
| CCOc1ccccc1NC1=C(Cl)C(=O)c2nc(C)ccc2C1=O | µM | 1.28 |
| COc1cc(NC2=C(Cl)C(=O)c3nc(C)ccc3C2=O)cc(OC)c1 | µM | 1.51 |
| COc1ccccc1NC1=C(Cl)C(=O)c2nc(C)ccc2C1=O | µM | 1.57 |

What measured GI50 is associated with CCOc1ccc(NC2=C(Cl)C(=O)c3nc(C)ccc3C2=O)cc1 on UACC-257?
1.39
